All values here come from ChEMBL document CHEMBL4813910.

# test_description: Ratio of drug level in human erythrocytes to plasma at 20 mg/kg, iv measured over 1 hr
# Type: ADME, organism-based
Each entry below carries its recorded Kp at 1 h.

# structure_notation, Kp at 1 h
measured = [
    ("O=Cc1c(O)cccc1OCCCCC(=O)O", 14.3),
    ("O=Cc1c(O)cccc1OCc1ccc(C(=O)O)cc1", "< 11.2"),
]

----------
# test_description: AUC (0 to 10 hrs) in human at 40 mg, po BID cotreated with paclitaxel by HPLC method
# Format: ADME, organism-based
# Set-up: time < 10 hr, route oral, dose 40 mg
# measurement_conditions: in vivo

# structure_notation, AUC at 10 h
measured = [
    ("Cc1cc2c(C(C)C)c(O)c(O)c(C=O)c2c(O)c1-c1c(C)cc2c(C(C)C)c(O)c(O)c(C=O)c2c1O", "6.81 µM·h"),
]
